assay: chemical genetic growth profiling, strain panel (AID 1159580);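 note: tested at 20 µM; growth read once vehicle control cultures reached saturation at 30 °C; 1 = growth at the plate median or of vehicle wells; lower values mean less growth of the strain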; conditions: S. cerevisiae deletion strains, growth OD, locus YFR028C, strain CDC14, hits give low values
Among all 5,500 compounds or so, about 2,000 (36%) were called active. Roughly 18% stayed inconclusive and do not appear here. The list shows a part of the results.
The reader will find reported normalized growth values listed item by item below.
property name: normalized growth

molecule	property name	observed
Cc1ccc(S(=O)(=O)Nc2nc(-c3ccc(C)c(Cl)c3)c(C)s2)cc1	normalized growth	0.99
O=C(NNc1ccccc1)c1cc(-c2ccc(Cl)cc2)oc1C(F)(F)F	normalized growth	0.942
O=C(Nc1cc(Cl)ccc1O)c1ccccc1CSc1ccc(Cl)cc1	normalized growth	0.986
N#Cc1ccc(Oc2sccc2[N+](=O)[O-])cc1	normalized growth	0.953
COc1ccc(-c2cn3cc(C)ccc3n2)cc1	normalized growth	0.975
C[C@@H](Nc1ncnc2sc3c(c12)CCCC3)c1ccccc1	normalized growth	0.951
FC(F)(F)c1cc(NC(=S)SCCSC(=S)Nc2cc(C(F)(F)F)cc(C(F)(F)F)c2)cc(C(F)(F)F)c1	normalized growth	0.993
O=S(=O)(NCc1ccc(C(F)(F)F)cc1)c1cc(Br)c(Br)s1	normalized growth	0.967
N#CC(C#N)=Cc1c(-c2ccccc2Cl)[nH]c2ccccc12	normalized growth	0.965
O=C(Nc1cc(C(F)(F)F)cc(C(F)(F)F)c1)C(Cl)(Cl)Cl	normalized growth	0.962
Clc1ccccc1-c1csc(-c2ccncc2)n1	normalized growth	0.96
Nc1ccccc1C(=O)Nc1cc(C(F)(F)F)cc(C(F)(F)F)c1	normalized growth	0.974
Clc1cccc(Nc2ncc(-c3ccc4c(c3)OCCCO4)s2)c1	normalized growth	0.963
O=S(=O)(Nc1cc(Cl)c(Cl)cc1Cl)c1cc(C(F)(F)F)cc(C(F)(F)F)c1	normalized growth	0.958
O=C(Nc1ccncc1)c1cc(-c2ccccc2)oc1C(F)(F)F	normalized growth	0.984
Cc1c(S(=O)(=O)Nc2cccc([N+](=O)[O-])c2)sc2ccc(Cl)cc12	normalized growth	0.973
CN(C)c1ccc(/C=C/c2ccc3ccccc3[n+]2C)cc1	normalized growth	0.967
Cc1ccc(NC(=S)C(C#N)C(=O)N2CCOCC2)c(C)c1 (stereo not drawn)	normalized growth	0.993
O=S(=O)(NCc1cc(Cl)cc(Cl)c1)c1cc(C(F)(F)F)cc(C(F)(F)F)c1	normalized growth	0.997
Clc1cc(Cl)cc(C=NCc2ccccc2)c1	normalized growth	0.967
O=[N+]([O-])c1ccsc1Oc1cccc(C(F)(F)F)c1	normalized growth	0.955
C/C(=N/NC(=S)NCC(C)(C)C)c1cc(F)cc(Cl)c1O	normalized growth	0.961
COc1ccc(-c2csc(-c3cccnc3)n2)cc1	normalized growth	0.949

====

experiment: chemical genetic growth profiling, strain panel (AID 1159580);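 note: tested at 20 µM; growth read once vehicle control cultures reached saturation at 30 °C; 1 = growth at the plate median or of vehicle wells; lower values mean less growth of the strain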; settings: S. cerevisiae deletion strains, growth OD, locus YML124C, strain tub3, hits give low values
In all, about 5,500 compounds went through this assay and about 2,000 (36%) were called active. Roughly 18% stayed inconclusive and do not appear here. The list shows a part of the results.
property name: normalized growth

compound	property name	observed
O=C(O)C1CCCNC1 (centres undefined)	normalized growth	1.01
O=c1[nH]c(=O)n(C2C[C@H](O)[C@@H](CO)O2)cc1C(F)(F)F (some centres undefined)	normalized growth	0.972
C1N2CN3CN1CN(C2)C3	normalized growth	0.982
O=C1CCCN1CC#CCN1CCCC1	normalized growth	1
